test: Therapeutic index expressed as ratio of IC50 for 50% growth inhibition to EC50 for 50% replication inhibition; type: cell-based; settings: human, H9 cells; read-out: TI
measurement-type: selectivity ratio

• CC1(C)Oc2ccc3ccc(=O)oc3c2[C@@H](OC(=O)C23CCC(C)(C(=O)O2)C3(C)C)[C@H]1OC(=O)C12CCC(C)(C(=O)O1)C2(C)C (some centres not stated) = > 328
• Cc1cn([C@H]2C[C@H](N=[N+]=[N-])[C@@H](CO)O2)c(=O)[nH]c1=O = 39000
• CCC1(C)Oc2ccc3c(C)cc(=O)oc3c2[C@@H](OC(=O)C23CCC(C)(C(=O)O2)C3(C)C)[C@H]1OC(=O)C12CCC(C)(C(=O)O1)C2(C)C (some centres not stated) = > 175
• Cc1cc(=O)oc2c3c(ccc12)OC[C@H](OC(=O)C12CCC(C)(C(=O)O1)C2(C)C)[C@@H]3OC(=O)C12CCC(C)(C(=O)O1)C2(C)C (some centres not stated) = > 6
• CCCC1(C)Oc2ccc3c(C)cc(=O)oc3c2[C@@H](OC(=O)C23CCC(C)(C(=O)O2)C3(C)C)[C@H]1OC(=O)C12CCC(C)(C(=O)O1)C2(C)C (some centres not stated) = > 5.9

Value sought for every listed compound: selectivity ratio.
1. Cc1cc(=O)oc2c3c(ccc12)OC(C)(C)[C@H](OC(=O)C12CCC(C)(C(=O)O1)C2(C)C)[C@@H]3OC(=O)C12CCC(C)(C(=O)O1)C2(C)C (some centres not stated)
2. CCC1(CC)Oc2ccc3c(C)cc(=O)oc3c2[C@@H](OC(=O)C23CCC(C)(C(=O)O2)C3(C)C)[C@H]1OC(=O)C12CCC(C)(C(=O)O1)C2(C)C (some centres not stated)

> 6600
> 13.2

src = ChEMBL document CHEMBL1138701
